Origin of values: patent US11638712B2

Target: KLK2 (Homo sapiens)
Assay: in vitro serine protease inhibition profile: KLK2
Type: biochemical
Settings: read-out: IC50 KLK2
pIC50: −log10 of the molar value.

{"columns": ["Compound", "pIC50"],
 "data": [
  ["N=C(N)c1ccc2cc(OC(=O)c3ccc(N=C(N)N)cc3)ccc2c1 [Nafamostat]", "~7.00"]
]}

###

Molecular target: KLK2 (Homo sapiens, UniProt P20151)
Sequence (P20151 25-261, species assumed): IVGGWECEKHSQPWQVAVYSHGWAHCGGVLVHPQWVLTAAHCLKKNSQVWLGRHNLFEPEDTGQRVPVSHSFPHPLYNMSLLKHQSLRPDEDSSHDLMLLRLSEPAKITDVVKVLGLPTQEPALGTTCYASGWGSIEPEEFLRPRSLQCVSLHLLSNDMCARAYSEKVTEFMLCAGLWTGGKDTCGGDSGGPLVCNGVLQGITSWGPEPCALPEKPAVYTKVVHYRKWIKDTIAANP
Assay: in vitro serine protease inhibition profile: KLK2
Type: biochemical
pIC50: −log10 of the molar value.

{"columns": ["Compound", "Assay system", "Value qualifier", "pIC50"],
 "data": [
  ["CC(=O)Nc1ccc(OP(=O)(Oc2ccc(NC(C)=O)cc2)C(Cc2ccc(NC(=N)N)cc2)NC(=O)OCc2ccccc2)cc1 (stereo not shown)", "KLK2 (Homo sapiens, UniProt P20151)", "=", 6.94],
  ["N=C(N)Nc1ccc(CC(NC(=O)OCc2ccccc2)P(=O)(Oc2ccccc2)Oc2ccccc2)cc1 (stereo not shown)", "KLK2 (Homo sapiens, UniProt P20151)", "=", 7.05],
  ["COC(=O)NC(Cc1ccc(NC(=N)N)cc1)P(=O)(Oc1ccccc1)Oc1ccccc1 (stereo not shown)", "KLK2 (Homo sapiens, UniProt P20151)", "<", 5.60],
  ["COC(=O)NC(Cc1ccc(NC(=N)N)cc1)P(=O)(Oc1ccc(NC(C)=O)cc1)Oc1ccc(NC(C)=O)cc1 (stereo not shown)", "KLK2 (Homo sapiens, UniProt P20151)", "=", 6.50]
]}

###

Target: matriptase (Homo sapiens)
Sequence (Q9Y5Y6 1-855): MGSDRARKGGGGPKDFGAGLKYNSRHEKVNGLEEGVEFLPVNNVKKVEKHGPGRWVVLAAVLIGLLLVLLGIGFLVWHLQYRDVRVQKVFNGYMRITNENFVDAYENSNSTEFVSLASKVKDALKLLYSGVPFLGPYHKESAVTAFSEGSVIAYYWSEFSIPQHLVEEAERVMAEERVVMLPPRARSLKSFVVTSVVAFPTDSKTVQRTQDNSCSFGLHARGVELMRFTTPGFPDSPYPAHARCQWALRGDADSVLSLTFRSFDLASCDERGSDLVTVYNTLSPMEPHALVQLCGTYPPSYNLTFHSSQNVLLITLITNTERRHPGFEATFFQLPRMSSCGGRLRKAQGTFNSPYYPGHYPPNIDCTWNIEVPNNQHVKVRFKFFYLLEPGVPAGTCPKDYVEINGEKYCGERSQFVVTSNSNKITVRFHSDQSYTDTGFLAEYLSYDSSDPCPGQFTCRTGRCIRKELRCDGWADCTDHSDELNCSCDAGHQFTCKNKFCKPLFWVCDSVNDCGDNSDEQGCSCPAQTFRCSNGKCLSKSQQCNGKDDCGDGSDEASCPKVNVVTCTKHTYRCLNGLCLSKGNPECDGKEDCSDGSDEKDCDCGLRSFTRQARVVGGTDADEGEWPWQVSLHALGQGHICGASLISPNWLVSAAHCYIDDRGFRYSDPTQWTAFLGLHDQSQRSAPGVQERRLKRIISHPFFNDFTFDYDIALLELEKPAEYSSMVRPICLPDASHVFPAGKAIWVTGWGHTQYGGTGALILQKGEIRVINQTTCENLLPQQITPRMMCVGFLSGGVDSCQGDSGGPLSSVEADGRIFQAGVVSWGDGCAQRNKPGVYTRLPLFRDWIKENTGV
Experiment: in vitro serine protease inhibition profile: matriptase
Assay type: biochemical
pIC50: −log10 of the molar value.
Each entry below lists one item and its recorded pIC50 value.

{"columns": ["Compound", "Assay system", "pIC50"],
 "data": [
  ["CC(=O)Nc1ccc(OP(=O)(Oc2ccc(NC(C)=O)cc2)C(Cc2ccc(NC(=N)N)cc2)NC(=O)OCc2ccccc2)cc1 (stereo not shown) [Compound 4]", "matriptase (Homo sapiens)", 8.52],
  ["N=C(N)Nc1ccc(CC(NC(=O)OCc2ccccc2)P(=O)(Oc2ccccc2)Oc2ccccc2)cc1 (stereo not shown) [Compound 3]", "matriptase (Homo sapiens)", 6.82],
  ["COC(=O)NC(Cc1ccc(NC(=N)N)cc1)P(=O)(Oc1ccccc1)Oc1ccccc1 (stereo not shown) [Compound 1]", "matriptase (Homo sapiens)", 7.09],
  ["COC(=O)NC(Cc1ccc(NC(=N)N)cc1)P(=O)(Oc1ccc(NC(C)=O)cc1)Oc1ccc(NC(C)=O)cc1 (stereo not shown) [Compound 2]", "matriptase (Homo sapiens)", 8.10]
]}
